- assayedTarget: EGFR (d746-750) (Homo sapiens (Human), UniProt P00533, DEL746-750)
- Sequence (P00533 other isoform, or with tags, fused parts or gaps del 1-694/del 746-750 limits assumed): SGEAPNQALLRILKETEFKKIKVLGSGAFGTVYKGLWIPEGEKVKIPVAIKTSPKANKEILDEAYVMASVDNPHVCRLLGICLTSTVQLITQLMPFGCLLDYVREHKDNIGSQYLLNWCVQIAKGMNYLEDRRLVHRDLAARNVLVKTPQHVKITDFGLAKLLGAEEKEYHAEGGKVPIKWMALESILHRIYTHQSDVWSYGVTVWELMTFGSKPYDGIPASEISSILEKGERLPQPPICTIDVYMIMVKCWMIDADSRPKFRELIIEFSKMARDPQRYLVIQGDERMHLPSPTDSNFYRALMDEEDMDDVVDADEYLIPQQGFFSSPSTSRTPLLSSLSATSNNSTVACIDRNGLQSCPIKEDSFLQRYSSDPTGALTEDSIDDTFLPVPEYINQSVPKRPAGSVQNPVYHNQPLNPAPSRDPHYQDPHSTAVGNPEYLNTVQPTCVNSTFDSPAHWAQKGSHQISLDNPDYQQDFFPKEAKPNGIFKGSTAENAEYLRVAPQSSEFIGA
- protocol: Biochemical EGFR inhibition assay, EGFR (d746-750)
- experimentalConditions: Caliper mobility shift; 1.0 mM ATP or ATP Km; read-out: Enz EGFR_Exon19-del746-750 IC50
# key: entry, value: pIC50
pIC50 field: float, defined as -log10 of concentration (mol/L).

Q) Bench note: what pIC50 did COc1cc2ncnc(-c3cn(C)nc3-c3ccccc3)c2cc1[C@@H](C)O (single isomer, unassigned) show?
A) 8.92

Q) Field request: pIC50 | item: COc1cc2ncnc(-c3c(-c4ccccc4)nn(C)c3C)c2cc1OC(=O)N1CCN(C)C[C@@H]1C
A) 7.01

Q) Field request: pIC50 | item: Cn1cc(-c2ccc3c(-c4cnn(C)c4-c4ccccc4)ncnc3c2)cn1
A) 8.74

Q) # input compound: CCn1cc(-c2ncnc3cc(OC)c(NC(=O)C45CC(N(C)C)(C4)C5)nc23)c(-c2ccc(F)cc2)n1 ; wanted: its pIC50
A) 9.10

Q) Requested read-out: pIC50. Entry: COc1cc2ncnc(-c3cn(C)nc3-c3ccccc3F)c2nc1NC(=O)[C@@]12COC[C@@H]1C2 (single isomer, unassigned)
A) 9.05

Q) Which pIC50 is listed for C[C@H](O)c1cc2c(-c3cn(CC(F)F)nc3-c3ccccc3)ncnc2cc1-c1cnn(C)c1 (single isomer, unassigned) ?
A) 9.22

Q) What value of measured pIC50 is listed for COc1cc2ncnc(-c3cn(C)nc3-c3ccccc3F)c2nc1NC(=O)[C@]12C[C@H]1CN(C)C2 ?
A) 8.85

Q) For the compound shown here, COc1cc2ncnc(-c3cn(C)nc3-c3ccccc3)c2cc1NC(=O)c1ccc(C2CC2)nc1 , give the reported pIC50.
A) 8.77

Q) # lookup: pIC50 of CCn1ccc(C(=O)Nc2cc3c(-c4cn(C)nc4-c4ccccc4)ncnc3cc2OC)n1
A) 9.22

Q) Need pIC50 of COc1cc2ncnc(-c3cn(C)nc3-c3ccccc3)c2nc1NC(=O)[C@]12C[C@H]1CN(C)C2 (single isomer, unassigned) , thanks.
A) 9.05

---
Q) What does the data say about its pIC50? Entry: COc1cc2ncnc(-c3cn(C)nc3-c3ccccc3F)c2nc1NC(=O)C1(C(F)F)CC1
A) 9.10

Q) What value of measured pIC50 is listed for CCOc1cc2ncnc(-c3cn(C)nc3-c3ccccc3)c2nc1NC(=O)C12CC(C1)C2 ?
A) 8.72

###

- assayedTarget: EGFR L858R (Homo sapiens (Human), UniProt P00533, L858R)
- Sequence (P00533 25-1210 L858R): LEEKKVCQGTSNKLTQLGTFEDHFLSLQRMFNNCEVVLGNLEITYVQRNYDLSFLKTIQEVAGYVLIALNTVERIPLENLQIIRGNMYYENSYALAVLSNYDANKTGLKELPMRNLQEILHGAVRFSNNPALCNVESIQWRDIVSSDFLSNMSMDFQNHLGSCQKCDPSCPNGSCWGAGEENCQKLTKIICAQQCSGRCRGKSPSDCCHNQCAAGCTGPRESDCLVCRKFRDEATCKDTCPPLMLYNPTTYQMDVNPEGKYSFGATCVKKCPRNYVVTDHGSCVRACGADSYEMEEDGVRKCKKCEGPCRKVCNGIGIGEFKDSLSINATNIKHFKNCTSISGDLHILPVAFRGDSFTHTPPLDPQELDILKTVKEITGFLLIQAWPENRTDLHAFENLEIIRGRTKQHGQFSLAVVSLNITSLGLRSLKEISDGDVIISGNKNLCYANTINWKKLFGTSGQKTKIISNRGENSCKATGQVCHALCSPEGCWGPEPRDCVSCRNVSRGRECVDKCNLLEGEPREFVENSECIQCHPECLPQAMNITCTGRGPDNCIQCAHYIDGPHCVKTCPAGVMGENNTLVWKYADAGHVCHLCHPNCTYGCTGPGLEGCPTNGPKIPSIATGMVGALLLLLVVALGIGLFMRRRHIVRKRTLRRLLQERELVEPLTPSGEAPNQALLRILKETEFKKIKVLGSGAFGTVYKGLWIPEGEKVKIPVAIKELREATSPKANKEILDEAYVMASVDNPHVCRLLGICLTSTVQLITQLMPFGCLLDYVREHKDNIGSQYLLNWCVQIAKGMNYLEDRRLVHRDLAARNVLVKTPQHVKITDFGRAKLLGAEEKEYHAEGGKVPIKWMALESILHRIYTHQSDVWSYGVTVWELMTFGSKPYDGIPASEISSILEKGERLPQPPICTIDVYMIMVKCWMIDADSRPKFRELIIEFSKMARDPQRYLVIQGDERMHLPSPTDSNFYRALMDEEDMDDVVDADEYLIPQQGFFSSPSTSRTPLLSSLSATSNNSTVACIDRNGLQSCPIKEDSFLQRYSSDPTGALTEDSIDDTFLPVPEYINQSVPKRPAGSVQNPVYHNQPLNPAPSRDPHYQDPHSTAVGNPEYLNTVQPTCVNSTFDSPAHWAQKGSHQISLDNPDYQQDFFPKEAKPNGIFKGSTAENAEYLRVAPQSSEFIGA
- protocol: Biochemical EGFR inhibition assay, EGFR L858R
- experimentalConditions: Caliper mobility shift; 1.0 mM ATP or ATP Km; read-out: Enz EGFR_L858R IC50
- Procedure: Reactions proceeded until between 10% to 20% total peptides were phosphorylated at room temperature (25° C.) and were terminated with 35 mM 2,2′,2″,2″-(ethane-1,2-diyldinitrilo)tetraacetic acid (EDTA). Product was detected using the Caliper mobility shift detection method where the phosphorylated peptide (product) and substrate were electrophoretically separated and measured. Percent activity was plotted against log concentration of compound and points to generate an apparent IC50.
measuredEndpoint: pIC50
In simple prose, pIC50 is minus the logarithm base ten of a concentration in moles per litre.

Some solved cases for reference:
Q) Would you kindly share the measured pIC50 for CCC(=O)Nc1cc2c(-c3cnn(CC(F)F)c3-c3ccccc3)ncnc2cc1OC ?
A) 8.54

Q) Query (molecule): COc1cc2ncnc(-c3cn(C)nc3-c3ccccc3)c2cc1OC(=O)N1[C@H](C)CN(C)C[C@H]1C ; field requested: pIC50
A) 8.27

Q) So what does the record say about pIC50 for COc1cc2ncnc(-c3cn(C)nc3-c3ccccc3)c2cc1OC(=O)N1CCN(C)[C@H]2C[C@H]21 (racemic) ?
A) 8.28

Q) // lookup pIC50 for CCn1cc(-c2ncnc3cc(-c4cnn(C)c4)ccc23)c(-c2ccccc2)n1
A) 9.15

Q) Find the recorded pIC50 belonging to CCc1nc2c(-c3cn(C)nc3-c3ccccc3)ncnc2cc1OC and report it.
A) 9.10

Q) Item COc1cc2ncnc(-c3cn(C)nc3-c3ccccc3)c2cc1OC(=O)N1CCN(C)C[C@@H]1C (stereo in doubt) has what recorded pIC50?
A) 8.48

Q) Please report the recorded pIC50 for COc1cc2ncnc(-c3cn(C)nc3-c3cccc(O)c3)c2nc1NC(=O)C1(C(F)(F)F)CC1 .
A) 8.17

Q) Quick one: pIC50 for COc1cc2ncnc(-c3cn(C)nc3-c3ccc(Cl)cc3)c2nc1NC(=O)C12CC(N(C)C)(C1)C2 ?
A) 8.25

Further cases:
Q) # input molecule: CCOc1cc2ncnc(-c3cn(C)nc3-c3ccccc3)c2cc1N1CCOCC1 ; wanted: its pIC50
A) 8.44

Q) Given CCOc1cc2ncnc(-c3cn(C)nc3-c3ccccc3)c2cc1OC1CCN(C(=O)CC)CC1 , state its recorded pIC50.
A) 8.46
